- protocol.description: inhibition of PEG-3 promoter activity – cell-based, HeLa, luciferase luminescence, primary screen (AID 588405)
- test.conditions: HeLa PEG-Prom luciferase reporter, overnight, at 20 µM
In all, about 360,000 compounds went through this assay and about 6,200 (1.7%) were called active.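 How the source made its calls: active means inhibition of at least 50% at 20 µM; inactive means the rest.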 Many of the other results were omitted from the sample, so actives are more common in it than they were.
Hello, when you answer, please use one of the following outcomes: active, inactive

Sample answers from the record:
COc1ccc(OC)c(C(=O)NC(CC(N)=O)c2ccc(N3CCC(N4CCCCC4)CC3)c([N+](=O)[O-])c2)c1 (stereo not drawn)
inactive
COc1ccccc1CNC(=O)c1cc(-c2cc(Cl)ccc2C)n[nH]1
inactive

Req: // return assay outcome for "O=C(O)c1ccc(N/N=C/c2ccc3ncccc3c2)cc1"
Resp: active

====

- protocol.description: inhibition of PEG-3 promoter activity – cell-based, HeLa, luciferase luminescence, primary screen (AID 588405)
- test.conditions: HeLa PEG-Prom luciferase reporter, overnight, at 20 µM
Hit rate of the full screen: of about 360,000 compounds, about 6,200 (1.7%) were called active.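 How the source made its calls: active means inhibition of at least 50% at 20 µM; inactive means the rest.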 What follows is part of a selection rich in actives, with near analogues and random picks from the rest.
Hello, when you answer, please use one of the following outcomes: 1.0 = active, 0.0 = inactive

Sample answers from the record:
CC(=O)Nc1cc(-c2ccccc2F)cn2c(-c3cccc(C(F)(F)F)c3)cnc12
0.0
CN1OC[C@@H]2CN(S(=O)(=O)c3cccc(C(F)(F)F)c3)[C@H](c3ccc(-c4cc5ccccc5o4)cc3)C[C@@H]21
1.0
CC1(C(=O)NS(=O)(=O)c2ccc(Cl)cc2)CCN1C(=O)CC1CCCC1 (configuration not stated)
0.0
CC(CN1CCCCC1)OC(=O)c1ccccc1Cl (configuration not stated)
0.0
CC(NC(=S)Nc1ccccc1)C(c1cccs1)N1CCOCC1 (configuration not stated)
0.0
O=C(O)Cc1ccc(NCc2ccccc2Cl)cc1
0.0

Req: // return assay outcome for "CN1OC[C@@H]2CN(S(=O)(=O)c3cccc4ccccc34)[C@H](c3ccc(N4CCCCC4)cc3)C[C@@H]21"
Resp: 0.0

Req: // return assay outcome for COc1ccc(C2CC(c3cccc(OC)c3)=NN2c2ccc(S(N)(=O)=O)cc2)cc1 (configuration not stated)
Resp: 0.0

Req: // return assay outcome for "Cc1ccc(C)c(N2CCN(C(=O)CCCCCn3c(=S)[nH]c4ccc(N5CCOCC5)cc4c3=O)CC2)c1"
Resp: 1.0

Req: // return assay outcome for CCCC(=O)NC(C)C(c1cccs1)N1CCN(c2ccccc2)CC1 (configuration not stated)
Resp: 0.0

Req: // return assay outcome for "COc1ccc(S(=O)(=O)N2C[C@H]3CON(C)[C@H]3C[C@H]2c2cccc(Br)c2)cc1"
Resp: 0.0

Req: // return assay outcome for "CC=CCn1c(SCCCc2ccccc2)nc2c1c(=O)[nH]c(=O)n2C"
Resp: 0.0

Req: // return assay outcome for "C=CC[n+]1c(-c2ccc(C)cc2)csc1NNC(=O)Nc1ccccc1"
Resp: 0.0

Req: // return assay outcome for CC(NC(=O)Nc1ccccc1)C(c1cccs1)N1CCN(c2ccccc2)CC1 (configuration not stated)
Resp: 1.0

Req: // return assay outcome for "O=S(=O)(c1ccccc1)N1CCc2ccccc21"
Resp: 0.0

Req: // return assay outcome for CC1(C(=O)NS(=O)(=O)c2ccccc2Cl)CCN1C(=O)c1cccc(F)c1 (configuration not stated)
Resp: 0.0

Req: // return assay outcome for "CSc1nc2ccc(S(=O)(=O)N3CCc4ccccc43)cc2s1"
Resp: 1.0

====

- protocol.description: inhibition of PEG-3 promoter activity – cell-based, HeLa, luciferase luminescence, primary screen (AID 588405)
- test.conditions: HeLa PEG-Prom luciferase reporter, overnight, at 20 µM, stronger effect = higher value
Out of some 360,000 compounds screened, about 6,200 (1.7%) were called active. What follows is part of a selection rich in actives, with near analogues and random picks from the rest.
metric.name: inhibition (%)
One number for each entry, in %.

COc1ccccc1N(CCOc1ccccc1)S(=O)(=O)c1ccccc1
18.4
CC(=O)N1C[C@@H](CO)[C@@H](N(C)C(=O)c2ccco2)C[C@H]1c1ccccc1
-9.39
COC(=O)c1ccc2nc(-c3cccc(Br)c3)c(Cc3ccc(OC)cc3C)n2c1
-33
CCCCNc1c(-c2cccc(Sc3ccc(OC)cc3)c2)nc2ccccn12
92.9
Cc1nc2c(OCc3ccc(Cl)cc3)cccn2c1N(C)Cc1cccs1
6.73
COCc1c(C(=O)N/N=C\c2cccnc2)nnn1-c1nonc1N
10.8
CCNC(=O)C1(C)CCN(C(=O)c2ccccc2)C1 (centres undefined)
-7.38
CCOC(=O)c1c(NC(=O)c2ccc(S(=O)(=O)N(C)CC3CCCO3)cc2)sc2c1CC(C)(C)NC2(C)C (centres undefined)
85.8

Okay, next one:
Req: Return inhibition for the following molecule: "COc1cc(NS(=O)(=O)c2ccc3ccccc3c2)c2ncccc2c1"
Resp: 54.5

====

- protocol.description: inhibition of PEG-3 promoter activity – cell-based, HeLa, luciferase luminescence, primary screen (AID 588405)
- test.conditions: HeLa PEG-Prom luciferase reporter, overnight, at 20 µM
Screen size: about 360,000 compounds; about 6,200 (1.7%) were called active.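 Rule for the calls: active = inhibition of at least 50% at 20 µM; inactive = the rest.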 What follows is part of a selection rich in actives, with near analogues and random picks from the rest.
Hello, when you answer, please use one of the following outcomes: active, inactive

Sample answers from the record:
COc1ccc(OC)c(Cc2cnc3nc(N)nc(N)c3c2C)c1
active
CC(O)(c1cccc(F)c1)c1nc(-c2ccc3c(c2)OCO3)cs1 (stereo not given)
inactive

Req: // return assay outcome for "COc1cc(/C=C/c2ccc(/C=C/c3cc(OC)c(OC)c(OC)c3)cc2)cc(OC)c1OC"
Resp: active

Req: // return assay outcome for "O=C(NCCO)c1cccc(-c2cccc3nccn23)c1"
Resp: inactive

Req: // return assay outcome for "O=C(Nc1cccc([N+](=O)[O-])c1)N1CCc2ccccc2C1"
Resp: inactive

====

Provide the recorded inhibition for the entries that follow.
- protocol.description: inhibition of PEG-3 promoter activity – cell-based, HeLa, luciferase luminescence, primary screen (AID 588405)
- test.conditions: HeLa PEG-Prom luciferase reporter, overnight, at 20 µM, stronger effect = higher value
The whole screen tested about 360,000 compounds, of which about 6,200 (1.7%) were called active. The list comes from a sample in which actives are over-represented; it also holds close analogues and randomly drawn compounds.

For every item below, please supply its inhibition.
1. OC[C@@H]1CN(Cc2ccc(Cl)cc2)C[C@H](n2cnc3c(NCc4ccncc4)ncnc32)O1
2. Cc1ccccc1NC(=S)N(CCCN1CCOCC1)Cc1cccs1
3. Cc1cn([C@H]2C[C@H](O)[C@@H](/C=C/C(=O)NCCCc3ccccc3)O2)c(=O)[nH]c1=O
4. C/C(CC(=O)Nc1cccc(C(F)(F)F)c1)=N\NC(=O)C(=O)NCC(C)C
5. COc1ccc(-c2cc(NC(C)=O)c3ncc(-c4cc(OC)c(OC)c(OC)c4)n3c2)cn1
6. NC(c1csc(NC(=O)Nc2cccc(C(F)(F)F)c2)n1)C1CCCCC1 (stereo unspecified)

Resp:
1. 8.27% (inactive)
2. -3.16% (inactive)
3. 9.64% (inactive)
4. -1.6% (inactive)
5. 9.76% (inactive)
6. 111% (active)

====

- protocol.description: inhibition of PEG-3 promoter activity – cell-based, HeLa, luciferase luminescence, primary screen (AID 588405)
- test.conditions: HeLa PEG-Prom luciferase reporter, overnight, at 20 µM
The campaign covered roughly 360,000 compounds. About 6,200 (1.7%) were called active.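 The calls were made as follows: active = inhibition of at least 50% at 20 µM; inactive = the rest.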 Shown is part of a subset that was picked to be rich in actives.
Hello, when you answer, please use one of the following outcomes: active, inactive

Sample answers from the record:
CN(CCO)Cc1csc2ccc(Br)cc12
inactive
CC[C@]12c3[nH]c4ccc(OC)cc4c3CCN1C(=O)C(CC(=O)NCc1ccco1)C[C@@H]2C(=O)N1CCN(C(=O)C2CC2)CC1 (some centres undefined)
inactive

Req: // return assay outcome for "COc1ccc(CNC(=O)C[C@H]2C[C@H](C(=O)N3CCOCC3)[C@@]3(CCC4CCCC4)c4[nH]c5ccc(Cl)cc5c4CCN3C2=O)cc1OC"
Resp: active

Req: // return assay outcome for "O=C(C[C@H]1C[C@H](C(=O)N2CCOCC2)[C@@]2(CCC3CCCC3)c3[nH]c4ccc(Cl)cc4c3CCN2C1=O)NCc1ccco1"
Resp: active

Req: // return assay outcome for "CCCC[C@@H]1CN=C(N)N1CCCC"
Resp: inactive

Req: // return assay outcome for "NC(N)=Nc1nc(-c2ccccc2)c2cc(Cl)ccc2n1"
Resp: active

Req: // return assay outcome for Cc1ccc(N2C(=O)CC(NCc3ccc4c(c3)OCO4)C2=O)cc1Cl (centres undefined)
Resp: inactive

Req: // return assay outcome for "COc1ccc(OC)c(NC(=O)c2sc3nc(C)cc(C)c3c2N)c1"
Resp: inactive

Req: // return assay outcome for COCCNC(=O)C1CCCN(Cc2ccccc2Cl)CC1 (centres undefined)
Resp: inactive
